# apparent KD of K4 kissing-loop reporter per entry
Test system: K4 kissing-loop RNA reporter;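 also: bound reporter read as fluorescence of individual clusters on recovered sequencing chips by microscopy, with normalized cluster intensities fitted with a binding model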
Test: apparent KD of K4 kissing-loop reporter; higher = weaker reporter binding
Settings: Eterna round: R107; input ligand: none
Use nM as the unit, but write only the number.

Previously resolved entries follow.
UGGAGUUGACGAAAAGUCAACUCCUGGGAAGGAGCGGACGAAAGUCCAGGUAGGUCGCUCACUACCAGUGAUGUUGGUACUAAAA: 296
GGCAGUGAUGUUGCCUAAGCAACGCAUGCGGAGGAUAUUCGUUCGGGAAGAAGGCCGCAGCGUUCUCUCGAGUGAUGUUCGAGUA [Same State FMN A GF 21]: 176
UGUGUUGUUUUGAUGUUUGGUGUAAGUUGGCAGGAUAUCGUAGAGGCGAGAAGGGCUUUUAUGCGUUAUGAGUGAUGUUUGUAGG [zrrzmullin]: 538
AGACUACCACACUGUCAAUAGACAGUGAGCUAGGAUAUGCUGAUAAGCAGAAGGAGUGAUGUUCCAAGGUAGUCAAUAAAAUAAU [FmnAX 13 G29+A66]: 221
AUGGUGGAUCAGUGAUGUUGGUGGAGUACGUAGGAUAUGAGUGAUGUUAGAAGGAUGGGAGUGAUGUUCCAGGUGGUUGUGUUGU [KL-SSFMN-A1]: 652

Then this sequence:
Ask: Recall the reported apparent KD of K4 kissing-loop reporter of AGAACUGUCUGAGAUACCAGCCAUAGGAGUGAUGUUCCUAGCUCCACAAAGUGGAGCCAUGGCCCUUGGCAGCUCAGACAGUUCA [Omei KL Theo B SS A v8] on K4 kissing-loop RNA reporter and write it down.
Reply: 219

----------
Test system: MS2 coat protein
Assay: apparent KD of MS2 coat protein; designed switch direction (-1 OFF switch, 1 ON switch): -1; higher = weaker reporter binding
Conditions: input ligand: FMN 200 uM
# apparent KD of MS2 coat protein per entry
Use nM as the unit, but write only the number.

Previously resolved entries follow.
GCUACUCCAGUCAGGAUAUGGAUCGGCUAAAAGACCCAGAAGGGACUUGAGGAUCACCCAAGUAACGGCUCGGG [Soveare] (Eterna round: R97, puzzle: Brourd's mod of Exclusion 4): 378
UCCACGUAAGGAUAUGGUCAUUGUGACUUGAGGAUCACCCAAGUUGUGAGCUUCCGUCACCCAGAAGGUGCAUGGU [Oratin] (Eterna round: R97, puzzle: Exclusion 5): 216
GUGAAACAUGAGGAUCACCCAUGUCAGGAUAUGCGAAUUUCAUCAAAAGAUGAAAUUUGCAGAAGGGACUGUAC [Omei Ex1 A21] (Eterna round: R97, puzzle: Exclusion 1): 136
CAGGAGUCACGAGGAUAUCUGGCUAAACGAACGAGAGAAGGUGUAGACUACCACAUGAGGAUCACCCAUGUUAUGACUAUACUA [Eternabot solution 30] (Eterna round: R96, puzzle: Exclusion NG 1): 14.8
GUUAUGUCAGGAUAUGCUAAUGAUGAGUGCUCAGACAUGAUGCAGAAGGGACAUGAGGAUCACCCAUGUACUGA [EX4 #12] (Eterna round: R97, puzzle: Exclusion 4): 102
UCCACACAUGAGGAUCACCCAUGUGAGGAUAUCAUGCUUCGUAGUAAACUACGAAGUGUGAGAAGGCACAUGGC [Omei Ex1 D13] (Eterna round: R97, puzzle: Exclusion 1): 94.7
UUCAUGUGAGGAUAUAGUACUUCUUCUAUUAUUAUUGAGUACUAGAAGGCACAUGAGGAUCACCCAUGUAGUAC [Ex4 - 3 - 43] (Eterna round: R96, puzzle: Exclusion 4): 21.8
UGUUGUCGCGUAGGAUAUUGUCAACAGGCAGUAGGAUAUGCGAAAGCAGAAGGACCGCCAACAGGCGAGAAGGACGGGACAACU [pwkr exNG2 2xF7 2xFMN.6] (Eterna round: R96, puzzle: Exclusion NG 2): 44.3
GUGGGUUACAUGAGGAUCACCCAUGUAUAGUGGGAAGAGAGAUAGGAUAUGAUGUGAGAAUUAUAUUAGAAGGAUCGAGACUAG [AK ExNG3-2.6] (Eterna round: R96, puzzle: Exclusion NG 3): 632

Then this sequence:
Ask: Provide apparent KD of MS2 coat protein value for the following sequence: UUUUAGUCAGGAUAUACAUGAGGAUCACCCAUGUAAAAUUUUAAUUUAAUUUUAAGGUGUAGAAGGGACAAUAA [Ex3 #8] (Eterna round: R97, puzzle: Exclusion 3)
Reply: 32.2
